# system tested: T1, recombinant human IL-27 (human, UniProt Q14213 21-229; Q8NEV9 29-243)
# T1 construct: Bought from R&D Systems (Cat. 2526-IL); also called hIL-27; rhIL-27
# T1 sequence 1: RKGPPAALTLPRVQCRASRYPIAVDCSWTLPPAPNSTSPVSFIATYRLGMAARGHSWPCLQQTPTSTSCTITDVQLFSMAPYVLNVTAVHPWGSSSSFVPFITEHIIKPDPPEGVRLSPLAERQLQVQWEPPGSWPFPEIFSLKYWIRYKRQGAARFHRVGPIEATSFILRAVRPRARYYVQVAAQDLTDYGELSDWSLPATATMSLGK
# T1 sequence 2: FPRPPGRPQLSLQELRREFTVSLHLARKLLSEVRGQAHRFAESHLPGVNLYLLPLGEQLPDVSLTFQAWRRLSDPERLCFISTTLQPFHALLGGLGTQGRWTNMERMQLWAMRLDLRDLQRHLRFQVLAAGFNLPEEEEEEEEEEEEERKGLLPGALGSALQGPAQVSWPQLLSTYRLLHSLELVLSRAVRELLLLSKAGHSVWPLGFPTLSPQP
# test name: SPR (Biacore T200), hIL-27 on CM5 chip, single cycle, 1:1 model

>  <binder>
Ab7.13 (antibody, human IgG1, kappa, V domains shown, human IgG1/kappa) VH: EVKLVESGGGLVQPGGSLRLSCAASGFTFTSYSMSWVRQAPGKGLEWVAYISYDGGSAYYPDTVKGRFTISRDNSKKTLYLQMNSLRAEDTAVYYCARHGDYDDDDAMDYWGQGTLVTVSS VL: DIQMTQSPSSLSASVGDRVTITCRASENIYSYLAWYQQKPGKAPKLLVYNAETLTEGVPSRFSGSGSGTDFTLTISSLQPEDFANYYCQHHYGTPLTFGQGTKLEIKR

>  <units symbol>
s⁻¹

>  <koff>
0.0018

$$$$
>  <binder>
Ab7.20 (antibody, human IgG1, kappa, V domains shown, human IgG1/kappa) VH: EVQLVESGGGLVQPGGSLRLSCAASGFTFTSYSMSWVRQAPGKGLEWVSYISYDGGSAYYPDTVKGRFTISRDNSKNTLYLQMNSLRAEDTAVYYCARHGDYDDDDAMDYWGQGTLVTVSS VL: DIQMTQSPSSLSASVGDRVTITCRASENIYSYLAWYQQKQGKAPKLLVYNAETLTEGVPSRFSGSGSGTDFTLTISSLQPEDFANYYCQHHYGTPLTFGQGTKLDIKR

>  <units symbol>
s⁻¹

>  <koff>
0.0018

$$$$
>  <binder>
Ab7.21 (antibody, human IgG1, kappa, V domains shown, human IgG1/kappa) VH: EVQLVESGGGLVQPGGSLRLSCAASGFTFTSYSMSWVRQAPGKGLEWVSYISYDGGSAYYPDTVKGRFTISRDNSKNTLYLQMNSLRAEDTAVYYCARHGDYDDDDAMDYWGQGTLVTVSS VL: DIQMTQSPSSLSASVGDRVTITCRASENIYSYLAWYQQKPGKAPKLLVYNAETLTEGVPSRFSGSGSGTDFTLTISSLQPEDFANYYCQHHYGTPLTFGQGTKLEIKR

>  <units symbol>
s⁻¹

>  <koff>
0.0019

$$$$
